Assign Herbicidal effect Scirpus juncoides to each entry below.
System: Scirpus juncoides
Test: Submersion test, treatment 10 days after transplantation: herbicidal effect
Format: in vivo
Settings: application rate 100 g/ha, rated 30 days after application
Procedure: A mixture consisting of 57 parts by weight of talc and 40 parts by weight of bentonite as carrier and 3 parts by weight of sodium alkylbenzenesulfonate as surfactant was pulverized and mixed uniformly to obtain a carrier for wettable powder. […] Seeds of Scirpus juncoides were sowed onto paddy field soil in a Wagner pot of 1/2000 are. […] After 30 days from the application of the herbicidal composition, the herbicidal effect and injury to the paddy rice were determined. […]

*Q* GET Herbicidal effect Scirpus juncoides | system: Scirpus juncoides | item: CS(=O)(=O)c1ccc(C(=O)C2=C(Sc3ccccc3)C3CCC(C3)C2=O)c(Cl)c1 (stereo not shown) [(B), reference compound]
*A* 2 (20% or higher but less than 40%)

*Q* GET Herbicidal effect Scirpus juncoides | system: Scirpus juncoides | item: CS(=O)(=O)C1Cc2c(ccc(C(=O)C3C(=O)CCCC3=O)c2Cl)S1(=O)=O (stereo not shown)
*A* 4 (70% or higher but less than 90%)

*Q* GET Herbicidal effect Scirpus juncoides | system: Scirpus juncoides | item: COCCSC1Cc2c(ccc(C(=O)C3=C(Cl)CCCC3=O)c2Cl)S1(=O)=O (stereo not shown)
*A* 4 (70% or higher but less than 90%)

*Q* GET Herbicidal effect Scirpus juncoides | system: Scirpus juncoides | item: CS(=O)(=O)C1Cc2c(ccc(C(=O)C3=C(Cl)CCCC3=O)c2Cl)S1(=O)=O (stereo not shown)
*A* 4 (70% or higher but less than 90%)

*Q* GET Herbicidal effect Scirpus juncoides | system: Scirpus juncoides | item: CSC1Cc2c(Cl)c(C(=O)C3=C(n4cccn4)CCCC3=O)cc(C)c2S1(=O)=O (stereo not shown)
*A* 4 (70% or higher but less than 90%)

====

Assign melting point to each entry below.

*Q* Indicate the recorded melting point value for this compound: CSC1Cc2c(Cl)c(C(=O)C3C(=O)CCCC3=O)cc(C)c2S1(=O)=O (stereo not drawn)
*A* 195.5 to 197 °C

*Q* Indicate the recorded melting point value for this compound: COC(=O)C(C(=O)OC)C1=C(C(=O)c2ccc3c(c2Cl)CC(SC)S3(=O)=O)C(=O)CCC1 (stereo not drawn)
*A* 150.3 to 150.5 °C

*Q* Indicate the recorded melting point value for this compound: CSC1Cc2c(ccc(C(=O)C3C(=O)CCCC3=O)c2C)S1(=O)=O (stereo not drawn)
*A* 192.7 to 193.2 °C

*Q* Indicate the recorded melting point value for this compound: CCSC1Cc2c(Cl)c(C(=O)C3C(=O)CCCC3=O)cc(C)c2S1(=O)=O (stereo not drawn)
*A* 143.2 to 154.8 °C

*Q* Indicate the recorded melting point value for this compound: CSC1Cc2c(ccc(C(=O)C3C(=O)CCCC3=O)c2Cl)S1(=O)=O (stereo not drawn)
*A* 174.7 to 175.1 °C

*Q* Indicate the recorded melting point value for this compound: CSC1Cc2c(ccc(C(=O)C3C(=O)CCCC3=O)c2C(F)(F)F)S1(=O)=O (stereo not drawn)
*A* 206.1 to 211.6 °C
